test system: Pseudomonas aeruginosa PAM1001; assay: microbe, parasite or virus in culture; type: cell-based; details: Concentration of Compound 40 μg/mL; Levofloxacin 0.25 μg/mL
Consider the following compounds; for each one, report its Inhibition (%) of growth of P. aeruginosa PAM1001.
Quick note: give the figure in %, leave out the unit.

query: Field request: Inhibition (%) of growth of P. aeruginosa PAM1001 | item: Cl.Cl.NCC(=O)NC1CNC(C(=O)Nc2cccc(NC(=O)CCc3ccccc3)c2)C1 (stereo not drawn) [Compound D701]
result: 100

query: Field request: Inhibition (%) of growth of P. aeruginosa PAM1001 | item: Cl.Cl.NCC(=O)N[C@H]1CN[C@H](C=Cc2ccc(-c3ccccc3)cc2)C1 [Compound D801]
result: 99

query: Field request: Inhibition (%) of growth of P. aeruginosa PAM1001 | item: Cl.Cl.NCC(=O)N[C@H]1CN[C@H](C(=O)NCc2ccc(-c3ccccc3)cc2)C1 (relative stereo) [Compound D316]
result: 100

query: Field request: Inhibition (%) of growth of P. aeruginosa PAM1001 | item: Cl.Cl.Cl.NCC(=O)N[C@H]1CN[C@H](C(=O)Nc2nc(-c3ccccc3)cs2)C1 (relative stereo) [Compound D326]
result: 74

query: Field request: Inhibition (%) of growth of P. aeruginosa PAM1001 | item: Cl.Cl.Cl.NCC(=O)N[C@@H]1CCN[C@H](C(=O)N2C[C@H](NC(=O)[C@H](O)CCc3ccccc3)C[C@H]2C(=O)Nc2cnc3ccccc3c2)C1 (relative stereo) [Compound D115]
result: 100

query: Field request: Inhibition (%) of growth of P. aeruginosa PAM1001 | item: Cl.Cl.NCC(=O)N[C@H]1CN[C@H](C(=O)N2CCN(c3ccc(Cl)cc3)CC2)C1 (relative stereo) [Compound D403]
result: 61

query: Field request: Inhibition (%) of growth of P. aeruginosa PAM1001 | item: Cl.Cl.Cl.NC[C@H](O)C(=O)N[C@H]1CN[C@H](C(=O)N2C[C@H](NC(=O)[C@H](O)CCc3ccccc3)C[C@H]2C(=O)Nc2cnc3ccccc3c2)C1 (relative stereo) [Compound D108]
result: 101

query: Field request: Inhibition (%) of growth of P. aeruginosa PAM1001 | item: CNCC(=O)N[C@H]1CN[C@H](C(=O)N2C[C@H](NC(=O)[C@H](O)CCc3ccccc3)C[C@H]2C(=O)Nc2cnc3ccccc3c2)C1.Cl.Cl.Cl (relative stereo) [Compound D106]
result: 100

query: Field request: Inhibition (%) of growth of P. aeruginosa PAM1001 | item: Cl.Cl.NCC(=O)N[C@@H]1CN[C@@H](C(=O)N2CCC(Oc3cc(Cl)cc(Cl)c3)CC2)C1 [Compound D415]
result: 100

query: Field request: Inhibition (%) of growth of P. aeruginosa PAM1001 | item: Cl.Cl.NCC(=O)N[C@H]1CN[C@H](COc2ccc(-c3ccccc3)cc2)C1 [Compound D501]
result: 98

query: Field request: Inhibition (%) of growth of P. aeruginosa PAM1001 | item: Cl.Cl.Cl.NCC(=O)N[C@H]1CN[C@H](C(=O)Nc2cnc3ccc(Cc4ccccc4)cc3c2)C1 (relative stereo) [Compound D327]
result: 100

query: Field request: Inhibition (%) of growth of P. aeruginosa PAM1001 | item: Cl.Cl.Cl.NCC(=O)NC1CNC(C(=O)Nc2cccc(NC(=O)CCc3ccccc3)n2)C1 (stereo not drawn) [Compound D702]
result: 100
